Target Desc: T1, huIL-17RA-FLAG-polyHis (human, UniProt Q96F46 33-320)
T1 construct: also called IL-17RA-FLAG-pHis; wild-type IL-17RA
Run Description: binning; IL-17RA held by bead mAb A
normalized MFI under -70 gets 1 (yes), anything at or over -70 gets 0 (no).

[Q] I'd appreciate it if you could check whether AMH21/AML21 (antibody, IgG2, V domains shown, human mAb from IgG2 XenoMouse mice; also called AM-21; antibody Q) VH: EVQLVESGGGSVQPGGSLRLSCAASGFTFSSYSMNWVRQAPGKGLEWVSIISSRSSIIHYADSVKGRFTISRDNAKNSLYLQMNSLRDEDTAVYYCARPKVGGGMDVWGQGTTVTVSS VL: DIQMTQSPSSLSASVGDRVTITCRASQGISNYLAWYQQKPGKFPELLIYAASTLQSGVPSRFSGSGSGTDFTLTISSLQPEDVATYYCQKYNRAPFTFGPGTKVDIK has normalized MFI smaller than -70.
[A] 0 (no)

[Q] Report whether reported normalized MFI is lower than -70 (strictly) for AMH10/AML10 (antibody, IgG2, V domains shown, human mAb from IgG2 XenoMouse mice; also called AM-10; antibody F) VH: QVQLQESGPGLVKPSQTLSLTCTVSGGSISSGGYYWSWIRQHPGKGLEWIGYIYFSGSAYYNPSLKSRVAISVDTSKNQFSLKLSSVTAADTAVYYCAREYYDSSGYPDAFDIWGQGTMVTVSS VL: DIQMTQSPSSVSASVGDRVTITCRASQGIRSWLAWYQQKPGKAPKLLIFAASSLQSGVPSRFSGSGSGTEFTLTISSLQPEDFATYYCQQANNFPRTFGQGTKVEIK
[A] 0 (no)

[Q] Hello, is normalized MFI of the following binder strictly smaller than -70? AMH20/AML20 (antibody, IgG2, V domains shown, human mAb from IgG2 XenoMouse mice; also called AM-20; antibody R) VH: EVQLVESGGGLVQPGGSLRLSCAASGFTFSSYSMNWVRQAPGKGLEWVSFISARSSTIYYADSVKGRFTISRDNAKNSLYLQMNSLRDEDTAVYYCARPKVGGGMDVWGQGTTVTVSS VL: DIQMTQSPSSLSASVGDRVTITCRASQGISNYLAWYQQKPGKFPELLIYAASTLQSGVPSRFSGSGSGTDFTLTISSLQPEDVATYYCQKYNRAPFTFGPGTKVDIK
[A] 0 (no)

[Q] Hello, is normalized MFI of the following binder strictly smaller than -70? AMH8/AML8 (antibody, IgG2, V domains shown, human mAb from IgG2 XenoMouse mice; also called AM-8; antibody C) VH: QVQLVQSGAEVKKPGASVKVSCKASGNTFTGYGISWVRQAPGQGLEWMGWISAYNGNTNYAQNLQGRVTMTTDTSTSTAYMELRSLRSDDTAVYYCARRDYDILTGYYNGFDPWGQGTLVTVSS VL: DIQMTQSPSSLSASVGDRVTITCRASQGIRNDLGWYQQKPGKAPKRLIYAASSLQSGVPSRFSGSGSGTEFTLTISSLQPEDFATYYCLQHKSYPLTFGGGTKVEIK
[A] 1 (yes)

[Q] Quick check: normalized MFI of AMH16/AML16 (antibody, IgG2, V domains shown, human mAb from IgG2 XenoMouse mice; also called AM-16; antibody O) VH: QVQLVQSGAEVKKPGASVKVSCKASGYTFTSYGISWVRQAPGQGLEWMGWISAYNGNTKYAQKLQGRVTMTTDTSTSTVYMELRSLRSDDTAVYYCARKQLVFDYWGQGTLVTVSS VL: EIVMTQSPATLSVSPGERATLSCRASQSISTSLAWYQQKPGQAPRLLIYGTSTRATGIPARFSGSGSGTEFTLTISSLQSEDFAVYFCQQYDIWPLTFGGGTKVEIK under -70?
[A] 0 (no)

[Q] Regarding AMH7/AML7 (antibody, IgG2, V domains shown, human mAb from IgG2 XenoMouse mice; also called AM-7; antibody D) VH: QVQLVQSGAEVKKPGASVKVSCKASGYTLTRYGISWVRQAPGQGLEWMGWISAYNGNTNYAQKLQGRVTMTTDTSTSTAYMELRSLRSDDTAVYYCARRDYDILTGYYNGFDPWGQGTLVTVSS VL: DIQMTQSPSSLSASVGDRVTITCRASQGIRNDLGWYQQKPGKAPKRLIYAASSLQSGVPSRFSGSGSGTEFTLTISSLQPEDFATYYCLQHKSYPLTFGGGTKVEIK , kindly confirm whether its normalized MFI is beneath -70.
[A] 1 (yes)

[Q] Regarding AMH11/AML11 (antibody, IgG2, V domains shown, human mAb from IgG2 XenoMouse mice; also called AM-11; antibody A) VH: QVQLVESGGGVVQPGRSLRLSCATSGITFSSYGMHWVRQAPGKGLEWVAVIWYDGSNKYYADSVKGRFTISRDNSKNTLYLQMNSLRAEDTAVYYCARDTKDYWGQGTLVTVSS VL: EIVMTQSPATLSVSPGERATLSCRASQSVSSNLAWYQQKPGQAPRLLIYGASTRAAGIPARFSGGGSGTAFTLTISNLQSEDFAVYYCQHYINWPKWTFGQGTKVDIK , kindly confirm whether its normalized MFI is beneath -70.
[A] 1 (yes)

[Q] Input AMH12/AML12 (antibody, IgG2, V domains shown, human mAb from IgG2 XenoMouse mice; also called AM-12; antibody M) VH: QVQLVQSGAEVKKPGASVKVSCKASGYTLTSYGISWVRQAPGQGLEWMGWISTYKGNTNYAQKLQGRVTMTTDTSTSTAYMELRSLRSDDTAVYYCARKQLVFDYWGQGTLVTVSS VL: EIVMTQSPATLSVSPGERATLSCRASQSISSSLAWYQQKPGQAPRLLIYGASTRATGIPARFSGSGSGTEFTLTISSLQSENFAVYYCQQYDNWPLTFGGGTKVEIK ; condition: normalized MFI strictly below -70. Does it hold?
[A] 0 (no)
